TGI for assorted compounds
# System: NCI-H522 lung
# experimental protocol: NCI tumour cell line growth inhibition, 48 h
Write it as a number; the unit µM goes unstated.

{"columns": ["compound", "TGI [µM]"],
 "data": [
  ["CCCC(c1cc(C(C)(C)C)c(O)cc1C)c1cc(C(C)(C)C)c(O)cc1C", 5.72],
  ["Cc1ccc(S(=O)OC2c3ccccc3Cc3ccccc32)cc1 (stereo not drawn)", 27.1],
  ["Brc1ccc(N=C/C=C(\\Nc2ccc(Br)cc2)C23CC4CC(CC(C4)C2)C3)cc1", 30.5],
  ["CC12CCC3C(CCC4(O)C=CCCC34C=O)C1(O)CC(O)C2c1ccc(=O)oc1 (stereo not drawn)", 0.0622],
  ["Cc1ccc(C2=NN=C3C(c4ccccc4)=Nc4ccccc4N3C2)cc1", 26.8],
  ["Nc1nc(N)c2cc(Sc3ccc(Cl)cc3)ccc2n1", 3.87],
  ["N#CC1(C#N)C2C=CC(C3CC=CC32)C1(C#N)C#N (stereo not drawn)", 3.18],
  ["COc1ccccc1NC(=S)NNC(=O)c1cc(-c2ccccc2)nc2ccccc12", 50],
  ["Cc1cc(N(C)C)ccc1N=Nc1ccc2ncccc2c1", 62.8],
  ["O=C([CH-]C(=O)c1ccccc1)c1ccccc1.O=C([CH-]C(=O)c1ccccc1)c1ccccc1.[CH2-]CCC.[CH2-]CCC.[Sn+4]", 0.13]
]}

Consider the additional compound presented here.
INPUT: Need TGI, item CC[n+]1c(/C=C/c2ccc(N3CCCC3)cc2)cccc1/C=C/c1ccc(N2CCCC2)cc1
OUTPUT: 2.08

// data source = PubChem BioAssay (NCI)
